# Test system: p75 and trkA receptors
# assaySummary: Binding of [125I]NGF to PC12 cells in the presence and absence of BDNF
# measurementContext: 100 uM compound, 0.5 nM 125I-NGF
# Protocol: The ability of the compounds of Formula I to antagonize NGF interaction with the p75 and trkA receptors was determined as follows. […] PC12 cells were grown in RPMI with 10% heat inactivated donor horse serum and 5% fetal calf serum. […] Radioactivity bound to the cells was determined by measuring the ^125I-NGF associated with each pellet in a gamma counter. […] TrkA binding is determined similarly except 10 nM BDNF is added to all reactions. […]
readout: % Inhibition at 100 uM (%)
The figure you give is taken to be in %; do not add the unit.

Task item: Look up % Inhibition at 100 uM with p75 and trkA receptors for this compound: O=C1CC2C=C(Sc3ccccc3)C=C3C=CC=CC32C(=O)N1CCc1ccccn1 (centres unmarked)
Reply: 33

Task item: Look up % Inhibition at 100 uM with p75 and trkA receptors for this compound: O=C1c2cccc3cc([N+](=O)[O-])cc(c23)C(=O)N1CCCN1CCOCC1
Reply: 11

Task item: Look up % Inhibition at 100 uM with p75 and trkA receptors for this compound: O=C1c2cccc3cc([N+](=O)[O-])cc(c23)C(=O)N1CCO
Reply: 44

Task item: Look up % Inhibition at 100 uM with p75 and trkA receptors for this compound: O=C1c2cccc3cccc(c23)C(=O)N1c1ccccc1O [2-(2-Hydroxyphenyl)naphthalimide]
Reply: 13

Task item: Look up % Inhibition at 100 uM with p75 and trkA receptors for this compound: O=C1c2cccc3c([N+](=O)[O-])ccc(c23)C(=O)N1CC1CCCO1 (centres unmarked)
Reply: 28

* * *

# System: p75 and trkA receptors
# assaySummary: Binding of [125I]NGF to PC12 cells in the presence and absence of BDNF
# measurementContext: 100 uM compound, 0.5 nM 125I-NGF
Can you tell me % Inhibition at 100 uM for the items I'm about to list?
The figure you give is taken to be in %; do not add the unit.

Task item: Look up % Inhibition at 100 uM with p75 and trkA receptors for this compound: Nc1ccccc1N1C(=O)c2cccc3cccc(c23)C1=O [2-(2-Aminophenyl)naphthalimide]
Reply: 20

Task item: Look up % Inhibition at 100 uM with p75 and trkA receptors for this compound: O=C1c2cccc3cccc(c23)C(=O)N1Cc1ccco1 [N-Furfuryl-1,8-naphthalimide]
Reply: 36

Task item: Look up % Inhibition at 100 uM with p75 and trkA receptors for this compound: CCOc1ccc(N2C(=O)c3cccc4cc([N+](=O)[O-])cc(c34)C2=O)cc1 [N-(4-Ethoxyphenyl)-5-nitronaphthalimide]
Reply: 18

Task item: Look up % Inhibition at 100 uM with p75 and trkA receptors for this compound: Cc1ccc(S(=O)(=O)Nc2ccccc2N2C(=O)c3cccc4c(N(C)C)ccc(c34)C2=O)cc1
Reply: 29

Task item: Look up % Inhibition at 100 uM with p75 and trkA receptors for this compound: O=C1c2cccc3cccc(c23)C(=O)N1CCc1ccccn1 [N-(Pyrid-2-ylethyl)-1,8-naphthalimide]
Reply: 35

Task item: Look up % Inhibition at 100 uM with p75 and trkA receptors for this compound: CCOC(=O)CN1C(=O)c2cccc3cc([N+](=O)[O-])cc(c23)C1=O
Reply: 16

Task item: Look up % Inhibition at 100 uM with p75 and trkA receptors for this compound: O=C1c2cccc3c([N+](=O)[O-])ccc(c23)C(=O)N1Cc1ccco1 [6-Nitro-2-(furfuryl)naphthalimide]
Reply: 17

Task item: Look up % Inhibition at 100 uM with p75 and trkA receptors for this compound: Cc1ccc(S(=O)(=O)Nc2cc(C)c(C)cc2N2C(=O)CC3C=CC=C4C=CC=CC43C2=O)cc1 (centres unmarked)
Reply: 19
